Herbicidal rating ECHORC values for the compounds below.
tested on: ECHORC (Watergrass (Calif.)); assay: Postemergence weed control under flooded paddy conditions; assay type: in vivo, Echinochloa oryzoides; details: Rate 0.0313 kg/ha, postemergence weeds, rated 3 to 4 weeks after treatment
observation.type: Herbicidal rating ECHORC

[[record]]
compound = "C#CCOC(=O)CC1SC(=Nc2cc(-n3c(=O)cc(C(F)(F)F)n(C)c3=O)c(F)cc2Cl)N(C)C1=O (stereo not shown)"
recorded_value = 0.0

[[record]]
compound = "CCOC(=O)CN1C(=O)C(CC(=O)NO)S/C1=N/c1cc(-n2c(=O)cc(C(F)(F)F)n(C)c2=O)c(F)cc1Cl (stereo not shown)"
recorded_value = 0.0

[[record]]
compound = "C#CCOC(=O)CC1SC(=Nc2cc(-n3c(=O)cc(C(F)(F)F)n(C)c3=O)c(F)cc2Cl)N(CC=C)C1=O (stereo not shown)"
recorded_value = 0.0

[[record]]
compound = "C=CCN1C(=O)C(CC(=O)NC)SC1=Nc1cc(-n2c(=O)cc(C(F)(F)F)n(C)c2=O)c(F)cc1Cl (stereo not shown)"
recorded_value = 4.0

